- Test system: EPLC-272H
- assaySummary: relative viability (nuclei count vs DMSO), 5 days (fraction); higher = more cells survive
- condition: first compound 8 µM
Documented relative viability across a set of compounds
Reply with just the number.

compound	targetDesc	relative viability
C=C1C(=O)O[C@@H](CCCCCCCC)[C@@H]1C(=O)O [C-75] + Cc1nc(NC(=O)N2CCC[C@H]2C(N)=O)sc1-c1ccnc(C(C)(C)C(F)(F)F)c1 [Alpelisib] (partner 2 µM)	EPLC-272H	0.862
C=C1C(=O)O[C@@H](CCCCCCCC)[C@@H]1C(=O)O [C-75] + COc1cc2c(Oc3ccc(NC(=O)C4(C(=O)Nc5ccc(F)cc5)CC4)cc3F)ccnc2cc1OCCCN1CCOCC1 [Foretinib] (partner 0.25 µM)	EPLC-272H	0.386

Continue with the next compound.
Prompt: Would you mind telling me what relative viability value was observed for C=C1C(=O)O[C@@H](CCCCCCCC)[C@@H]1C(=O)O [C-75] + CC(C)C[C@H](NC(=O)[C@H](Cc1ccccc1)NC(=O)c1cnccn1)B(O)O [Bortezomib] (partner 0.002 µM) ?
Response: 0.913

* * *

- Tested on: LU99A
- assaySummary: relative viability (nuclei count vs DMSO), 5 days (fraction); higher = more cells survive
- condition: first compound 1 µM
API: label(entry) gives true if the entry's relative viability is strictly smaller than 0.5; on equality or larger values it gives false.

compound	categoryLabel
NC(=O)Nc1cc(-c2cccc(F)c2)sc1C(=O)N[C@H]1CCCNC1 [AZD7762] + Nc1nc2[nH]cc(CCc3ccc(C(=O)N[C@@H](CCC(=O)O)C(=O)O)cc3)c2c(=O)[nH]1 [Pemetrexed] (partner 0.2 µM)	true

Prompt: Determine if NC(=O)Nc1cc(-c2cccc(F)c2)sc1C(=O)N[C@H]1CCCNC1 [AZD7762] + CCNC(=O)c1noc(-c2cc(C(C)C)c(O)cc2O)c1-c1ccc(CN2CCOCC2)cc1 [Luminespib] (partner 0.01 µM) shows relative viability strictly lower than 0.5.
Response: true

Prompt: Same again, this time with NC(=O)Nc1cc(-c2cccc(F)c2)sc1C(=O)N[C@H]1CCCNC1 [AZD7762] + COc1cccc2cc(-c3nc([C@H]4CC[C@H](C(=O)O)CC4)n4ncnc(N)c34)[nH]c12 [OSI-027] (partner 0.5 µM)
Response: true

Prompt: Moving on to the next compound: NC(=O)Nc1cc(-c2cccc(F)c2)sc1C(=O)N[C@H]1CCCNC1 [AZD7762] + COc1cc2c(Oc3ccc(NC(=O)C4(C(=O)Nc5ccc(F)cc5)CC4)cc3F)ccnc2cc1OCCCN1CCOCC1 [Foretinib] (partner 0.25 µM)
Response: false

* * *

- Tested on: NCI-H1437
- assaySummary: relative viability (nuclei count vs DMSO), 5 days (fraction); higher = more cells survive
- condition: first compound 0.8 µM
resultType: relative viability

In the examples that follow, each entry is paired with its recorded relative viability.
compound	relative viability
Oc1nc(-c2ccc(C(F)(F)F)cc2)nc2c1CSCC2 [XAV939] + CC(=O)Nc1cccc(-n2c(=O)n(C3CC3)c(=O)c3c(Nc4ccc(I)cc4F)n(C)c(=O)c(C)c32)c1 [Trametinib] (partner 0.02 µM)	0.518
C=C1C(=O)O[C@@H](CCCCCCCC)[C@@H]1C(=O)O [C-75] + C[C@]1(O)C[C@@H](c2nc(-c3ccc4ccc(-c5ccccc5)nc4c3)c3c(N)nccn32)C1 [Linsitinib] (partner 1 µM)	1.04
Oc1nc(-c2ccc(C(F)(F)F)cc2)nc2c1CSCC2 [XAV939] + CC1(C)CCC(c2ccc(Cl)cc2)=C(CN2CCN(c3ccc(C(=O)NS(=O)(=O)c4ccc(N[C@H](CCN5CCOCC5)CSc5ccccc5)c(S(=O)(=O)C(F)(F)F)c4)cc3)CC2)C1 [Navitoclax] (partner 0.5 µM)	1.12
C=C1C(=O)O[C@@H](CCCCCCCC)[C@@H]1C(=O)O [C-75] + O=C(c1cc(Cc2n[nH]c(=O)c3ccccc23)ccc1F)N1CCN(C(=O)C2CC2)CC1 [Olaparib] (partner 8 µM)	0.642
C=C1C(=O)O[C@@H](CCCCCCCC)[C@@H]1C(=O)O [C-75] + Cc1nc(Nc2ncc(C(=O)Nc3c(C)cccc3Cl)s2)cc(N2CCN(CCO)CC2)n1 [Dasatinib] (partner 0.075 µM)	0.367

// below: relative viability requested for another compound
Prompt: # get_value(readout= relative viability, system= NCI-H1437) for Oc1nc(-c2ccc(C(F)(F)F)cc2)nc2c1CSCC2 [XAV939] + CC(=O)c1c(C)c2cnc(Nc3ccc(N4CCNCC4)cn3)nc2n(C2CCCC2)c1=O [Palbociclib] (partner 0.5 µM)
Response: 0.301

* * *

- Test system: HCC-366
- assaySummary: relative viability (nuclei count vs DMSO), 5 days (fraction); higher = more cells survive
- condition: first compound 8 µM
List of relative viability values.
Lab note: record just the number, no unit beside it.

These recorded examples may help you get a feel for the data.
molecule	recordedValue
C=C1C(=O)O[C@@H](CCCCCCCC)[C@@H]1C(=O)O [C-75] + Cc1nc(Nc2ncc(C(=O)Nc3c(C)cccc3Cl)s2)cc(N2CCN(CCO)CC2)n1 [Dasatinib] (partner 0.075 µM)	0.443
C=C1C(=O)O[C@@H](CCCCCCCC)[C@@H]1C(=O)O [C-75] + Nc1nc2[nH]cc(CCc3ccc(C(=O)N[C@@H](CCC(=O)O)C(=O)O)cc3)c2c(=O)[nH]1 [Pemetrexed] (partner 0.2 µM)	0.188
C=C1C(=O)O[C@@H](CCCCCCCC)[C@@H]1C(=O)O [C-75] + CC1(C)CCC(c2ccc(Cl)cc2)=C(CN2CCN(c3ccc(C(=O)NS(=O)(=O)c4ccc(N[C@H](CCN5CCOCC5)CSc5ccccc5)c(S(=O)(=O)C(F)(F)F)c4)cc3)CC2)C1 [Navitoclax] (partner 0.5 µM)	0.833
C=C1C(=O)O[C@@H](CCCCCCCC)[C@@H]1C(=O)O [C-75] + O=C(c1cc(Cc2n[nH]c(=O)c3ccccc23)ccc1F)N1CCN(C(=O)C2CC2)CC1 [Olaparib] (partner 8 µM)	0.347

Prompt: I would be grateful if you could share the reported relative viability for C=C1C(=O)O[C@@H](CCCCCCCC)[C@@H]1C(=O)O [C-75] + N=C(N)NC(=N)NCCc1ccccc1 [Phenformin] (partner 250 µM) .
Response: 0.571

* * *

- Test system: NCI-H661
- assaySummary: relative viability (nuclei count vs DMSO), 5 days (fraction); higher = more cells survive
- condition: first compound 1.265 µM
Reported relative viability values follow for various compounds
Lab note: record just the number, no unit beside it.

compound	relative viability
O=C(O)c1ccc(-c2c[nH]c3ncc(-c4ccccc4)cc23)cc1C1CCCC1 + CC(=O)Nc1cccc(-n2c(=O)n(C3CC3)c(=O)c3c(Nc4ccc(I)cc4F)n(C)c(=O)c(C)c32)c1 [Trametinib] (partner 0.02 µM)	0.59
O=C(O)c1ccc(-c2c[nH]c3ncc(-c4ccccc4)cc23)cc1C1CCCC1 + C[C@@H](Oc1cc(-c2cnn(C3CCNCC3)c2)cnc1N)c1c(Cl)ccc(F)c1Cl [Crizotinib] (partner 1 µM)	1.03
O=C(O)c1ccc(-c2c[nH]c3ncc(-c4ccccc4)cc23)cc1C1CCCC1 + N=C(N)NC(=N)NCCc1ccccc1 [Phenformin] (partner 250 µM)	0.278
O=C(O)c1ccc(-c2c[nH]c3ncc(-c4ccccc4)cc23)cc1C1CCCC1 + Nc1ncn([C@H]2C[C@H](O)[C@@H](CO)O2)c(=O)n1 [Decitabine] (partner 2 µM)	0.524
O=C(O)c1ccc(-c2c[nH]c3ncc(-c4ccccc4)cc23)cc1C1CCCC1 + Nc1nc2[nH]cc(CCc3ccc(C(=O)N[C@@H](CCC(=O)O)C(=O)O)cc3)c2c(=O)[nH]1 [Pemetrexed] (partner 0.2 µM)	0.892

Prompt: // query relative viability value for entry O=C(O)c1ccc(-c2c[nH]c3ncc(-c4ccccc4)cc23)cc1C1CCCC1 + COc1cccc2cc(-c3nc([C@H]4CC[C@H](C(=O)O)CC4)n4ncnc(N)c34)[nH]c12 [OSI-027] (partner 0.5 µM)
Response: 0.734

Prompt: Moving on to O=C(O)c1ccc(-c2c[nH]c3ncc(-c4ccccc4)cc23)cc1C1CCCC1 + Cc1nc(NC(=O)N2CCC[C@H]2C(N)=O)sc1-c1ccnc(C(C)(C)C(F)(F)F)c1 [Alpelisib] (partner 2 µM)
Response: 0.703

* * *

- Test system: NCI-H23
- assaySummary: relative viability (nuclei count vs DMSO), 5 days (fraction); higher = more cells survive
- condition: first compound 0.5 µM
Define the label as rule met when relative viability is strictly less than 0.8 and as rule not met in all remaining cases.

molecule	categoryLabel
CC1(C)CCC(c2ccc(Cl)cc2)=C(CN2CCN(c3ccc(C(=O)NS(=O)(=O)c4ccc(N[C@H](CCN5CCOCC5)CSc5ccccc5)c(S(=O)(=O)C(F)(F)F)c4)cc3)CC2)C1 [Navitoclax] + Cc1cc(Nc2cc(N3CCN(C)CC3)nc(Sc3ccc(NC(=O)C4CC4)cc3)n2)n[nH]1 [Tozasertib] (partner 0.1 µM)	rule met
CC1(C)CCC(c2ccc(Cl)cc2)=C(CN2CCN(c3ccc(C(=O)NS(=O)(=O)c4ccc(N[C@H](CCN5CCOCC5)CSc5ccccc5)c(S(=O)(=O)C(F)(F)F)c4)cc3)CC2)C1 [Navitoclax] + NC(=O)Nc1cc(-c2cccc(F)c2)sc1C(=O)N[C@H]1CCCNC1 [AZD7762] (partner 0.2 µM)	rule met
CC1(C)CCC(c2ccc(Cl)cc2)=C(CN2CCN(c3ccc(C(=O)NS(=O)(=O)c4ccc(N[C@H](CCN5CCOCC5)CSc5ccccc5)c(S(=O)(=O)C(F)(F)F)c4)cc3)CC2)C1 [Navitoclax] + O=C(c1cc(Cc2n[nH]c(=O)c3ccccc23)ccc1F)N1CCN(C(=O)C2CC2)CC1 [Olaparib] (partner 8 µM)	rule met

Prompt: Here's an entry: CC1(C)CCC(c2ccc(Cl)cc2)=C(CN2CCN(c3ccc(C(=O)NS(=O)(=O)c4ccc(N[C@H](CCN5CCOCC5)CSc5ccccc5)c(S(=O)(=O)C(F)(F)F)c4)cc3)CC2)C1 [Navitoclax] + CC(C)C[C@H](NC(=O)[C@H](Cc1ccccc1)NC(=O)c1cnccn1)B(O)O [Bortezomib] (partner 0.002 µM) . Is its relative viability below 0.8?
Response: rule not met
